B1: TPR t1 (parent)
chain: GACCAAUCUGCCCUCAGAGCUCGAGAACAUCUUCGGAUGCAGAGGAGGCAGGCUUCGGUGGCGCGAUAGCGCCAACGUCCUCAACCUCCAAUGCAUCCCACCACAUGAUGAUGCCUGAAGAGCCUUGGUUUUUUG

# Variants of: B1
# procedureSummary: polymerase ribozyme fitness, log enrichment relative to wild type (log ratio); higher = more active; in vitro selection for triplet polymerase activity
metricName: polymerase ribozyme fitness (log ratio)
Lab note: record the figure alone, no unit after it.

C13A G71A A74C G128A: -5.69
C20A G57U C97A C115A U116C: -6.48
C94A G127U U134G G135U: -2.31
C3A G42U G48U G52U C64U C86U G113U U133G: -7.08
C28U C73A: -2.23
C114U U129A: -3.98
A43U C49U G61A G113C C123U: -3.66
C12A C15U G48C U92C U96A G122A: -4.12

Which polymerase ribozyme fitness (log ratio) is reported for this variant? C73U C97A U106C
-5.37

Which polymerase ribozyme fitness (log ratio) is reported for this variant? C76G G77U
0.0405

Which polymerase ribozyme fitness (log ratio) is reported for this variant? G10U A18U C40A C56G
-4.94

Which polymerase ribozyme fitness (log ratio) is reported for this variant? A6C G39U G63A
-1.63

Which polymerase ribozyme fitness (log ratio) is reported for this variant? A2U A16U U96A G128A
-4.83

Which polymerase ribozyme fitness (log ratio) is reported for this variant? G39A C40A G45U
-4.88

Which polymerase ribozyme fitness (log ratio) is reported for this variant? A26C C73A U81C C88A A108G C114G A119U
-6.8

Attribution: the RNAGym collection of RNA variant scans (doi:10.1073/pnas.2313332121)
